All figures here come from patent US11021464B2.

ASSAY_EXPLANATION: Pharmacokinetic test in SD rats, intragastric 50 mg/kg of salts and crystalline forms
Assay type: in vivo
CONDITIONS_USED: male, SD, rat, plasma, po, 50 mg/kg, 50 mg/kg (in free base), read-out: Tmax

TEST_SMILES	Tmax, h
CC(C)(C)ONc1nc(Nc2ccnc(C(F)(F)F)c2)nc(-c2cccc(C(F)(F)F)n2)n1.CS(=O)(=O)O	6.6

###

ASSAY_EXPLANATION: Stability test of various salts, high temperature and high humidity (Chinese Pharmacopoeia 2010, Part II, Appendix XIX C)
Format: physicochemical
CONDITIONS_USED: after high temperature and high humidity test
PROPERTY_NAME: Purity after high temperature and high humidity test (%)

COMPOUND	RECORDED_MEASUREMENT
CC(C)(C)ONc1nc(Nc2ccnc(C(F)(F)F)c2)nc(-c2cccc(C(F)(F)F)n2)n1.O=S(=O)(O)O [The sulfate (Example 8)]	93.58
CC(C)(C)ONc1nc(Nc2ccnc(C(F)(F)F)c2)nc(-c2cccc(C(F)(F)F)n2)n1.CS(=O)(=O)O	99.22
CC(C)(C)ONc1nc(Nc2ccnc(C(F)(F)F)c2)nc(-c2cccc(C(F)(F)F)n2)n1.Cc1ccc(S(=O)(=O)O)cc1 [The p-toluenesulfonate (Example 9)]	97.63
CC(C)(C)ONc1nc(Nc2ccnc(C(F)(F)F)c2)nc(-c2cccc(C(F)(F)F)n2)n1.Cl [The hydrochloride salt (Example 7)]	99.62
